- Test system: DU-145 prostate
- Assay Info: NCI tumour cell line growth inhibition, 48 h
*1 amine or outer side, *2 acyl side, *3 side chain or, on linkers, in order; H or OH if unused. Where a SMILES comes first, the peptide text is derived from it. Bridges are numbered along the chain shown (N, C = ends). [ ]: non-standard residue; d: D form. The star is where a group is joined. Phe(3-Me) = Cc1cccc(C[C@H](N)C(=O)O)c1; NH(4-Cl-2-F-phenyl) = Fc1cc(Cl)ccc1N*; Pro(4R-Me) = C[C@H]1CN[C@H](C(=O)O)C1; Propanoyl(3-NMe2) = CN(C)CCC(=O)*; Hyp = O=C(O)[C@@H]1C[C@@H](O)CN1; aThr = C[C@H](O)[C@H](N)C(=O)O; Pip = O=C(O)[C@@H]1CCCCN1; CO = O=C([*:1])[*:2]
Property Label: TGI

Molecule	Measured On	Property Label	Readout Value
O=C(O)/C=C\C(=O)Nc1ccc2c(c1)C(=O)c1cc(F)ccc1-2	DU-145 prostate	TGI	> 100 µM
NC[C@@](O)(c1ccc(Cl)cc1)c1ccc(-c2cn[nH]c2)cc1	DU-145 prostate	TGI	> 100 µM
Cc1cccc(C[C@H](NC(=O)Nc2ccc(Cl)cc2F)C(=O)N[C@@H]2C(=O)N3C[C@H](OC(=O)CCN(C)C)C[C@H]3C(=O)N3CCCC[C@H]3C(=O)N[C@@H](C)C(=O)N3C[C@H](C)C[C@H]3C(=O)O[C@H]2C)c1 ({NH(4-Cl-2-F-phenyl)-CO}-[Phe(3-Me)][aThr][Hyp](Propanoyl(3-NMe2))[Pip]A[Pro(4R-Me)]; ester 2-C)	DU-145 prostate	TGI	5.86 µM
N#CC(c1cc(Cl)ncn1)c1nc2ccccc2s1 (configuration not stated)	DU-145 prostate	TGI	24.2 µM
CCOC(=O)c1cc(-c2ccc(Cl)cc2)c([N+](=O)[O-])n1C	DU-145 prostate	TGI	> 10 µM
O=C1C[C@H]2[C@H](c3ccc(Br)cc3)[C@H]3C(=O)c4ccccc4NC(=O)[C@@H]3[C@@]2(O)c2ccccc2N1	DU-145 prostate	TGI	> 100 µM
COc1cc(OC)nc(Nc2c(C#N)c3nc4ccccc4n3c3ccccc23)n1	DU-145 prostate	TGI	> 100 µM

----------
// values below are reported TGI
- Tested on: HL-60(TB) leukemia
- Assay Info: NCI tumour cell line growth inhibition, 48 h

Smiles	TGI
Cc1cc(-c2nc3cc(F)c(F)cc3s2)ccc1N	> 100 µM
COc1ccc(-c2nnc(CCCCCCCCc3nnc(-c4ccc(OC)cc4)o3)o2)cc1	> 100 µM
S=C(N/N=C(/c1ccccc1)c1ccccn1)Nc1cccc(Cl)c1	0.162 µM

----------
- System: SK-MEL-5 melanoma
- Assay Info: NCI tumour cell line growth inhibition, 48 h
*1 amine or outer side, *2 acyl side, *3 side chain or, on linkers, in order; H or OH if unused. Where a SMILES comes first, the peptide text is derived from it. Bridges are numbered along the chain shown (N, C = ends). [ ]: non-standard residue; d: D form. The star is where a group is joined. Phe(3-Me) = Cc1cccc(C[C@H](N)C(=O)O)c1; NH(4-Cl-2-F-phenyl) = Fc1cc(Cl)ccc1N*; Pro(4R-Me) = C[C@H]1CN[C@H](C(=O)O)C1; Propanoyl(3-NMe2) = CN(C)CCC(=O)*; Hyp = O=C(O)[C@@H]1C[C@@H](O)CN1; aThr = C[C@H](O)[C@H](N)C(=O)O; Pip = O=C(O)[C@@H]1CCCCN1; CO = O=C([*:1])[*:2]
Property Label: TGI (µM)

Compound	Modifier	Readout Value
CC(Oc1ccc2cc(C(=O)c3ccccc3)c(=O)oc2c1)C(=O)O (stereo unspecified)	>	100
CN1CCCCC1CCN1c2ccccc2Sc2ccc(S(C)=O)cc21 (stereo unspecified)	>	100
CC1=C(C(=O)Nc2ccccc2C)C(c2ccc(C3C(C(=O)Nc4ccccc4C)=CNC=C3C(=O)Nc3ccccc3C)cc2)C(C(=O)Nc2ccccc2C)=C(C)N1	=	17.8
Cc1ccc(NC(=O)c2nc(S(C)=O)oc2-c2ccc(F)cc2)cc1Nc1nccc(-c2cccnc2)n1 (stereo unspecified)	=	3.59
Nc1c(C(=O)Nc2ccccc2)sc2nc3c(cc12)CCCC3	=	2.24
O=c1[nH]c(/C=C(\O)c2ccncc2)nc2ccccc12	>	100
Cc1ccc(C2=C(c3ccccc3)C(O)(c3ccc(C)cc3)C(c3ccccc3)=C2c2ccc(C)cc2)cc1	>	100
Nc1ccc(N)c2c1C(=O)c1c(N)ccc(N)c1C2=O	>	100
Cc1cccc(C[C@H](NC(=O)Nc2ccc(Cl)cc2F)C(=O)N[C@@H]2C(=O)N3C[C@H](OC(=O)CCN(C)C)C[C@H]3C(=O)N3CCCC[C@H]3C(=O)N[C@@H](C)C(=O)N3C[C@H](C)C[C@H]3C(=O)O[C@H]2C)c1 ({NH(4-Cl-2-F-phenyl)-CO}-[Phe(3-Me)][aThr][Hyp](Propanoyl(3-NMe2))[Pip]A[Pro(4R-Me)]; ester 2-C)	=	1.62
COC1(C)C=NCC(C)(C)NC(=O)C(C)(OC)C=NCC(C)(C)NC1=O (stereo unspecified)	>	10
O=C1C(Cl)=C(Nc2cccc(O)c2)C(=O)N1c1cccc(Cl)c1Cl	=	21.7
COc1ccc(Nc2ncccc2C(=O)NCc2cn(Cc3cccc(Oc4ccccc4)c3)nn2)cc1	>	100
CC(=O)O[C@H]1[C@@H](N2CCN(C)CC2)C[C@H]2[C@@H]3CC=C4C[C@@H](N5CCCC5)CC[C@]4(C)[C@H]3CC[C@@]21C	=	73
CC1=CC2C(C(C)C)CC1C1C(=O)OC(=O)C21 (stereo unspecified)	>	100
CCN1CCN(C(=O)[C@]23CCC(C)(C)C[C@@H]2C2=CC[C@@H]4[C@@]5(C)C/C(=C/c6cccnc6)C(=O)C(C)(C)[C@@H]5CC[C@@]4(C)[C@]2(C)CC3)CC1	=	3
Cc1cc(-c2nc3cc(F)c(F)cc3s2)ccc1N	>	100

----------
- Tested on: M14 melanoma
- Assay Info: NCI tumour cell line growth inhibition, 48 h

Compound	TGI
O=c1[nH]c(/C=C(\O)c2ccncc2)nc2ccccc12	> 100 µM
BrC12c3ccccc3Sc3ccccc3C1(Br)c1ccccc12 (stereo unspecified)	28.8 µM
CN(C(=O)c1cccs1)C(=S)N1CCN(c2ccccc2)CC1	> 100 µM
Cn1cnc([N+](=O)[O-])c1Sc1nc(N)nc2c1ncn2Cc1ccccc1	69 µM
Cc1nn(-c2ccc(Br)cc2)c(C)c1CC(=O)c1cc(O)ccc1O	> 50 µM
COC(=O)NN1C(C)=C(C(=O)OC)C2(CCOC2=O)C1(C)O (stereo unspecified)	> 100 µM
CC1=NN(C(=O)Cc2ccccc2)C(=O)/C1=C\c1ccco1	> 100 µM
CCN(CC)c1nc(N(C)C)c2cc(OC)ccc2n1	> 100 µM
C=C1C(=O)OC2/C=C(\C)C3OC3/C=C(/C(=O)OC)C(OC(C)=O)C(OC(=O)C(C)(O)C(C)OC(C)=O)C12 (stereo unspecified)	8.05 µM
CCCN1CCN(c2ccc3nc(-c4ccc5nc(-c6ccc(OCC)c(OCC)c6)[nH]c5c4)[nH]c3c2)CC1	1.39 µM
C=C(C(=O)O)[C@@H]1C[C@@H]2O[C@H]1CC(C)=CCC/C(C)=C/CC[C@@]2(C)O	> 100 µM

----------
// values below are reported TGI
- Test system: CAKI-1 renal
- Assay Info: NCI tumour cell line growth inhibition, 48 h
Property Label: TGI

Compound	Property Label	Readout Value
Oc1cc2ccccc2cc1-c1n[nH]c(=S)n1-c1ccc(Cl)cc1	TGI	39.4 µM
COC(=O)C1C2CCCN2OC1(C)CO (stereo unspecified)	TGI	> 100 µM
COc1cc2c(cc1O)C(C)Cc1cc3c(cc1N(C)CC2)OCO3 (stereo unspecified)	TGI	> 74.3 µM
CCCCCCCCCCCCP(=O)(O)OCC(N)C(=O)O (stereo unspecified)	TGI	> 100 µM
CC/C=C\C/C=C\C[C@H]1C/C=C2/C(=O)C=C[C@H]2C/C=C\CCC(=O)O1	TGI	8.58 µM
COc1ccc(/C=C/C(=O)c2ccc(Nc3ccnc4cc(Cl)ccc34)cc2)cc1	TGI	> 100 µM

----------
- Test system: EKVX NSCLC
- Assay Info: NCI tumour cell line growth inhibition, 48 h
// values below are reported TGI

Compound	TGI
CCN(CC)CCOc1ccc(C(=C2CCCCC2)c2ccc(OCCN(CC)CC)cc2)cc1	3.36 µM
COc1cc(-c2cc(CCC(=O)Nc3ccccc3[N+](=O)[O-])n(-c3ccc([N+](=O)[O-])cc3[N+](=O)[O-])n2)ccc1O	> 100 µM
CCn1cnc2c(NC(C)=O)ncnc21	> 100 µM
CC(C)=CCC[C@H](C)[C@H]1CC[C@@H](C)c2cc(O)c(C)cc21	33.4 µM
CCNc1ncnc2n[nH]nc12	> 100 µM
CC1=C2C(O)C(C(C)C(=O)NC(C)C)CCC2(C)C=CC1=O (stereo unspecified)	> 100 µM
COC(Cc1ccccc1)NC(C)=O (stereo unspecified)	> 100 µM
CC(NC(=O)C(N)CC(=O)O)NC(=O)N1CCCC1 (stereo unspecified)	> 100 µM
CC(Oc1ccc2cc(C(=O)c3ccccc3)c(=O)oc2c1)C(=O)O (stereo unspecified)	> 100 µM
CN1CCCCC1CCN1c2ccccc2Sc2ccc(S(C)=O)cc21 (stereo unspecified)	> 100 µM
O=C(O)c1cc(Sc2ccc([N+](=O)[O-])c(C(=O)O)c2)ccc1[N+](=O)[O-]	> 100 µM
